assay-remarks: Permeability from apical to basolateral side in human Caco2 cells
Format: ADME, cell-based
cond: Caco-2, read-out: permeability

{"columns": ["structure", "Papp A→B, ×10⁻⁶ cm/s"],
 "data": [
  ["C=C[C@@H]1C[C@]1(NC(=O)[C@@H]1C[C@@H](Oc2cc(-c3csc(NC(C)C)n3)nc3cc(OC)ccc23)CN1C(=O)[C@@H](NC(=O)OC1CCCC1)C(C)(C)C)P(=O)(O)Cc1ccccc1", 0.7],
  ["C=C[C@@H]1C[C@]1(NC(=O)[C@@H]1C[C@@H](Oc2cc(-c3csc(NC(C)C)n3)nc3cc(OC)ccc23)CN1C(=O)[C@@H](NC(=O)OC1CCCC1)C(C)(C)C)P(=O)(O)Cc1ccc(OC)cc1", 0.71],
  ["C=C[C@@H]1C[C@]1(NC(=O)[C@@H]1C[C@@H](Oc2cc(-c3csc(NC(C)C)n3)nc3cc(OC)ccc23)CN1C(=O)[C@@H](NC(=O)OC1CCCC1)C(C)(C)C)P(=O)(O)Cc1cccc(OC)c1", 0.39],
  ["C=C[C@@H]1C[C@]1(NC(=O)[C@@H]1C[C@@H](Oc2cc(-c3csc(NC(C)C)n3)nc3cc(OC)ccc23)CN1C(=O)[C@@H](NC(=O)OC1CCCC1)C(C)(C)C)P(=O)(O)Cc1ccccc1C", 0.69]
]}
